# Test system: HEK-293T
# PROTOCOL_DETAILS: Multiplex assay against HEK293T
# Assay type: toxicity, cell-based
# ASSAY_CONDITIONS: human, 48 h, 10 µM, compound concentration 10 uM, replicate 2
Note to self: use true (1) only for Population Mitochondria Different-Phenotype (%) readings below 60%; a reading exactly at 60% still gets false (0).

# MOLECULE, SYSTEM_UNDER_TEST, CLASSIFICATION
measured = [
    ("COc1cc2ncn(-c3cc(OCc4ccccc4C(F)(F)F)c(C(N)=O)s3)c2cc1OC [GW843682X]", "HEK-293T", "false (0)"),
    ("CC(C)OC(=O)N1CCC(Oc2ncnc3c2cnn3-c2ccc(S(C)(=O)=O)cc2F)CC1", "HEK-293T", "true (1)"),
    ("CCCSc1nc(N[C@@H]2C[C@H]2c2ccc(F)c(F)c2)c2nnn([C@@H]3C[C@H](OCCO)[C@@H](O)[C@H]3O)c2n1", "HEK-293T", "false (0)"),
]

Task: Population Mitochondria Different-Phenotype (%) strictly < 60% for this molecule? CC(C)Oc1ccccc1C(=O)Nc1ccccc1C(=O)Nc1cccc(S(=O)(=O)C(F)(F)F)c1
Result: false (0)

Task: Dear colleague, could you confirm whether Population Mitochondria Different-Phenotype (%) of Cl.O=C(O)c1cc(-c2ccc(C3CCNCC3)cc2)c2ccc(-c3ccc(C(F)(F)F)cc3)cc2c1 falls below 60%? Thanks.
Result: true (1)

Task: Identify whether the molecule COc1cc(Nc2nccc(-c3cnn4nc(OC)ccc34)n2)cc(C(F)(F)F)c1 records Population Mitochondria Different-Phenotype (%) below 60%.
Result: true (1)

----------
# System: U2OS
# PROTOCOL_DETAILS: Multiplex assay against U2OS
# Format: toxicity, cell-based
# ASSAY_CONDITIONS: human, 48 h, 1 µM, compound concentration 1 uM, replicate 1
Below, each entry is listed with its recorded Population Healthy Nuclei (%).
Response body: numeric value in %, unit text excluded.

Task: Population Healthy Nuclei (%) lookup needed for COc1cc(Nc2nccc(-c3cnn4nc(OC)ccc34)n2)cc(C(F)(F)F)c1 , thanks.
Result: 54

Task: Can you look up the measured Population Healthy Nuclei (%) of COc1ccccc1CN[C@H]1C2CCN(CC2)[C@H]1C(c1ccccc1)c1ccccc1 [CP-96345] for me?
Result: 85

Task: # Population Healthy Nuclei (%) lookup, item Cc1c[nH]c2nccc(Oc3c(F)cc(Nc4cc(Cl)nc(N)n4)cc3F)c12 [BAY-549]
Result: 64

Task: Quick one: Population Healthy Nuclei (%) for Cc1ccc(C)c(Oc2ccncc2C(=O)N2CCN(C3CC3)c3ccccc32)c1 ?
Result: 82

Task: So what does the record say about Population Healthy Nuclei (%) for CCCSc1nc(N[C@@H]2C[C@H]2c2ccc(F)c(F)c2)c2nnn([C@@H]3C[C@H](OCCO)[C@@H](O)[C@H]3O)c2n1 [TICAGRELOR] ?
Result: 87

----------
# System: U2OS
# PROTOCOL_DETAILS: Multiplex assay against U2OS
# Format: toxicity, cell-based
# ASSAY_CONDITIONS: human, 12 h, 1 µM, compound concentration 1 uM, replicate 2
The entries below come with measured Total Cell Count values attached.
Note: the reply should be a number with no unit written.

Some solved cases for reference:
# MOLECULE, VALUE_REPORTED
data = [
    ("COc1cc(Nc2nccc(-c3cnn4nc(OC)ccc34)n2)cc(C(F)(F)F)c1", 44),
    ("CCCSc1nc(N[C@@H]2C[C@H]2c2ccc(F)c(F)c2)c2nnn([C@@H]3C[C@H](OCCO)[C@@H](O)[C@H]3O)c2n1", 82),
    ("COc1cc2ncn(-c3cc(OCc4ccccc4C(F)(F)F)c(C(N)=O)s3)c2cc1OC [GW843682X]", 83),
]

// next item, Total Cell Count requested
Task: For the record Cc1ccccc1C(c1ccccc1C)N1C2CCC1CC(O)(c1ccccc1)C2 (centres undefined) , what value of Total Cell Count is listed for U2OS?
Result: 80
